Property: TGI; scope: individual compounds
Tested on: SK-MEL-28 melanoma
Assay: NCI tumour cell line growth inhibition, 48 h
Property: TGI

| Compound | Result |
| --- | --- |
| CC(=Nc1ccccc1)C1=C(O)C(Cc2ccccc2)NC1=O (configuration not stated) | > 100 µM |
| Brc1ccc2c([C@H]3CN[C@@H](c4c[nH]c5cc(Br)ccc45)CN3)c[nH]c2c1 | 27.2 µM |
| Oc1[nH]c2ccc(Cl)cc2c1/C=c1/ccc2c(c1)N=C(c1ccc(F)cc1)N=2 | 3.48 µM |
| CSc1c(C#N)c(N)nc2c(N=Nc3ccc(Cl)cc3)c(N)nn12 | 7.57 µM |
| CS(=O)(=O)N(N(CCCl)S(=O)(=O)c1ccccc1)S(C)(=O)=O | > 100 µM |
| Nc1nc(-c2ccc(F)cc2)c(-c2ccc3ncccc3n2)s1 | > 25 µM |
| CCOc1ccc(/C=N/[N+](C)(C)C)cc1OCC | > 10 µM |
| COc1ccc(OC)c(/C=C(/C)[N+](=O)[O-])c1 | 4.73 µM |
| COC(=O)c1ccc(C)cc1/C=C1\Cc2ccc(C)cc2C1=O | 34.6 µM |
| Fc1ccccc1C1CC(c2ccc3ccccc3c2)=Nc2ccccc2S1 (configuration not stated) | > 100 µM |
| COc1cc(O)c(C(=O)/C=C/c2ccc(O)cc2)c(O)c1[C@@H]1C[C@H](CCc2ccc(O)cc2)O[C@H](c2ccc(O)cc2)C1 | 14.1 µM |
| Cc1c(COc2cc(OCc3cccc(C#N)c3)c(CN3C[C@H](O)C[C@@H]3C(=O)O)cc2Cl)cccc1-c1ccc2c(c1)OCCO2 | 26.1 µM |
| CN(C)CCNC(=O)c1cccc2c1nc(-c1ccccc1)c1ccccc12 | 21.3 µM |
| O=S(=O)(O)ON=C1c2ccccc2-c2ccccc21 | > 100 µM |
| c1csc(-c2cc(-c3cccs3)c(-c3cccs3)s2)c1 | > 100 µM |
| CC1C[C@@H]2C(=O)NC(=O)[C@@H]2c2c1c1ccccc1n2C (some centres not stated) | > 100 µM |
| CCC1CN2CCc3c([nH]c4ccccc34)C2C[C@@H]1CC(=O)N(C)C (some centres not stated) | > 100 µM |
| CCCCCCCCCCCCCP(=O)(O)OCC | > 100 µM |
| COC(=O)CCCC(=O)O | > 100 µM |
| CN(C)c1ccc(Nc2cc(-c3cccc(OC(F)(F)F)c3)nc3ccc(N4CCCC4)cc23)cc1 | 3.3 µM |
| O=[N+]([O-])c1cccc(C2ON2C2CCCCC2)c1 (configuration not stated) | > 100 µM |
| CC1OC(OC2C(O[C@H]3CC[C@@]4(C)C(=CC[C@H]5[C@@H]6C[C@@H]7O[C@]8(CC[C@H](C)CN8)[C@@H](C)[C@@H]7[C@@]6(C)CC[C@@H]54)C3)OC(CO)C(O)C2OC2OC(CO)C(O)C(O)C2O)C(O)C(O)C1O (some centres not stated) | 38.5 µM |
| NC(=O)c1cc(-c2ccc(F)cc2)cc(-c2ccncc2)c1N | > 25 µM |
| CC1(C)[C@@H](O[C@@H]2OC[C@@H](O[C@@H]3O[C@H](CO)[C@@H](O)[C@H](O)[C@H]3O[C@@H]3OC[C@@H](O)[C@H](O)[C@H]3O)[C@H](O)[C@H]2O[C@@H]2O[C@H](CO)[C@@H](O)[C@H](O)[C@H]2O)CC[C@]2(C)[C@H]3CC[C@]45OC[C@@]6(CC[C@](C)(C=O)C[C@H]64)[C@H](O)C[C@@]5(C)[C@]3(C)CC[C@@H]12 | 1.77 µM |
| O=C/C=C/c1ccco1 | > 100 µM |
| O=C1C2C3C=CC(C2C(=O)N1COP(=O)(O)O)C1C2C(=O)N(COP(=O)(O)O)C(=O)C2C31 (configuration not stated) | > 100 µM |
| CO/N=C(\C)COc1ccc2c(=O)c(-c3ccccc3)coc2c1 | > 100 µM |
| CN1C(=O)[C@@H]2[C@@H]3c4ccccc4N(S(=O)(=O)C(F)(F)F)[C@@H]3c3[nH]c4ccccc4c3[C@@H]2C1=O | > 100 µM |
| O=C1c2ccccc2C(=O)c2c1ccc(C1C(=O)c3ccccc3C1=O)c2-c1c(C2C(=O)c3ccccc3C2=O)ccc2c1C(=O)c1ccccc1C2=O | > 100 µM |
| O=C(Nc1ccccc1)NS(=O)(=O)c1ccc(-n2nc3c(c2-c2ccc(Cl)cc2)Cc2ccccc2-3)cc1 | > 100 µM |
| CN1CCN(c2ccc3nc(-c4ccc5nc(-c6ccc(OCCC(C)(C)C)cc6)[nH]c5c4)[nH]c3c2)CC1 | 9.43 µM |
| CC(C)C(C)C(C)(C)P(C)(C)=O (configuration not stated) | > 100 µM |
| O=C(NCc1ccc(Cn2c(=O)sn(-c3ccccc3)c2=O)cc1)OCc1ccc2c(Br)cc(Br)c(O)c2n1 | 2.4 µM |
| CCOC(=O)C(O)(NC(=O)c1ccccc1F)C(F)(F)F (configuration not stated) | > 100 µM |
| Cc1c2cnccc2c(C)c2c1c1ccccc1n2CCCCCCNCc1ccccc1 | 4.41 µM |
| Nc1nc(Cl)cc(NCCC2(CO)CCC2)n1 | > 100 µM |
| Cc1occc1C(=S)Nc1ccc(Cl)c(C(=O)OC(C)C2CC2)c1 (configuration not stated) | > 100 µM |

meta.source: PubChem BioAssay (NCI)
